System: Escherichia coli TOP10;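 also: peptides expressed intracellularly from a pBAD plasmid library in pooled LB shake-flask culture, induced with 0.3% L-arabinose, DNA abundance read by NGS, three biological replicates, DESeq2 with apeglm shrinkage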
assayExplanation: shrunken log2 fold change of peptide-encoding DNA abundance (4.5 h post-induction vs induction); higher = less antimicrobial activity (less host growth inhibition)
conditionsUsed: time post-induction: 4.5 h; library: site-saturation at positions 5, 18, 19, 20
Label scheme for shrunken log2 fold change: lower than -0.09 is not met, -0.09 and above is met.

Study these solved cases before continuing.
1) RRIRNRPPRLPRPRPRPAKAPRP : met
2) RRIRARPPRLPRPRPRPGMAPRP : met
3) RRIRDRPPRLPRPRPRPQVDPRP : met
4) RRIRVRPPRLPRPRPRPNIDPRP : not met

Then this sequence:
Problem: Please tell me: is the sequence RRIRHRPPRLPRPRPRPWNPPRP at or over -0.09 in terms of shrunken log2 fold change?
Solution: not met
